- measurement_target: CYP3A4 (Homo sapiens, UniProt P08684)
- Sequence (P08684 whole entry): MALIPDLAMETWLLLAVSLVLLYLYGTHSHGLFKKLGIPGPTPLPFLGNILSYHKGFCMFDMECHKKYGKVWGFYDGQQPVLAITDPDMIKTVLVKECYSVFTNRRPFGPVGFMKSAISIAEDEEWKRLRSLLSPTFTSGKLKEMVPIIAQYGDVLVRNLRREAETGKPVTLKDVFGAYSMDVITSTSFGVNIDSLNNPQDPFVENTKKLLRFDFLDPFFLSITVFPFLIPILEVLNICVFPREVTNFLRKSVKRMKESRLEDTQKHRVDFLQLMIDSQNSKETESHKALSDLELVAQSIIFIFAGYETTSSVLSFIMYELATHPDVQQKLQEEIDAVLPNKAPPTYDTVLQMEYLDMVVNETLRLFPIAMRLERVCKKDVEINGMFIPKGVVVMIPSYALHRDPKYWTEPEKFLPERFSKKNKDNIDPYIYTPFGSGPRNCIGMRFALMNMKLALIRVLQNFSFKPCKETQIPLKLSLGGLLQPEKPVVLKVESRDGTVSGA
- experimental_protocol: Inhibition of CYP3A4 in human liver microsomes at 10 uM after 20 mins in presence of NADPH by LC-MS/MS analysis
- Format: ADME
Some compounds, each annotated with its measured inhibition at 20 min, 10 µM.

Prompt line: For the compound shown here, `CC1(C)Cc2c(c(C(=O)Nc3cc(C4CC4)ccc3F)cc3nc(Nc4c(F)cccc4Cl)[nH]c23)O1` , give the reported inhibition at 20 min, 10 µM.
Response line: -12%

Prompt line: For the compound shown here, `CC1(C)Cc2c(c(C(=O)Nc3ccc(C(F)(F)F)cn3)cc3nc(Nc4c(Cl)cccc4Cl)[nH]c23)O1` , give the reported inhibition at 20 min, 10 µM.
Response line: 40%

Prompt line: For the compound shown here, `Cn1c(Nc2c(F)cccc2Cl)nc2cc(C(=O)Nc3cccc(C(F)(F)F)c3)c3c(c21)CC(C)(C)O3` , give the reported inhibition at 20 min, 10 µM.
Response line: 8%

Prompt line: For the compound shown here, `Cc1cccc(Cl)c1Nc1nc2cc(C(=O)Nc3cc(C(F)(F)F)ccc3F)c3c(c2[nH]1)CC(C)(C)O3` , give the reported inhibition at 20 min, 10 µM.
Response line: -4%

----------
- experimental_protocol: Inhibition of human U937 cells-derived COX1 assessed as decrease in PGE2 production at 10 uM using arachidonic acid as substrate preincubated for 15 mins prior to substrate addition for 5 mins relative to control
- condition_description: COX1 derived from U937 cells, probe arachidonic acid
quantity: inhibition at 5 min, 10 µM (%)
Please state the figure in %; there is no need to write the unit.

| smiles_representation | inhibition at 5 min, 10 µM [%] |
| --- | --- |
| CC1(C)Cc2c(c(C(=O)Nc3ccc(F)c(C(F)(F)F)c3)cc3nc(Nc4c(F)cccc4Cl)[nH]c23)O1 | 8.27 |
| CC1(C)Cc2c(c(C(=O)Nc3cc(C(F)(F)F)ccc3F)cc3nc(Nc4c(F)cccc4Cl)[nH]c23)O1 | 14.7 |
| Cc1cccc(Cl)c1Nc1nc2cc(C(=O)Nc3cc(C(F)F)ccc3F)c3c(c2[nH]1)CC(C)(C)O3 | 38.2 |
| CC1(C)Cc2c(c(C(=O)Nc3ccc(C(F)(F)F)cn3)cc3nc(Nc4c(Cl)cccc4Cl)[nH]c23)O1 | 7.8 |
| Cn1c(Nc2c(F)cccc2Cl)nc2cc(C(=O)Nc3cccc(C(F)(F)F)c3)c3c(c21)CC(C)(C)O3 | 19.7 |

Proceeding to the next compound to report its inhibition at 5 min, 10 µM.
Prompt line: For the compound shown here, `Cc1cccc(Cl)c1Nc1nc2cc(C(=O)Nc3cc(C(F)(F)F)ccc3F)c3c(c2[nH]1)CC(C)(C)O3` , give the reported inhibition at 5 min, 10 µM.
Response line: 14.6

----------
- experimental_protocol: Ratio of drug uptake in brain to plasma of Dunkin-Hartley guinea pig LPS-induced hyperalgesia pain model at 30 mg/kg, po administered 2 hrs prior to LPS challenge measured 7 hrs post dose
- Format: ADME, organism-based, Cavia porcellus
- condition_description: read-out: BPR
quantity: Kp at 7 h
Lab note: record the figure alone, no unit after it.

Prompt line: For the compound shown here, `CC1(C)Cc2c(c(C(=O)Nc3ccc(F)c(C(F)(F)F)c3)cc3nc(Nc4c(F)cccc4Cl)[nH]c23)O1` , give the reported Kp at 7 h.
Response line: 0.6
